The molecules listed here are annotated with their Inhibition Rate of PAI-1 Activity (%).
target: recombinant human PAI-1 (Homo sapiens); construct: purchased Molecular Innovations, Inc; assay: Test Example 1: human PAI-1 inhibitory activity (tPA fluorogenic substrate, pH 7.5 Tris buffer); format: biochemical; settings: Compound Concentration 10 μM; Tris buffer
Sequence (P05121 24-402): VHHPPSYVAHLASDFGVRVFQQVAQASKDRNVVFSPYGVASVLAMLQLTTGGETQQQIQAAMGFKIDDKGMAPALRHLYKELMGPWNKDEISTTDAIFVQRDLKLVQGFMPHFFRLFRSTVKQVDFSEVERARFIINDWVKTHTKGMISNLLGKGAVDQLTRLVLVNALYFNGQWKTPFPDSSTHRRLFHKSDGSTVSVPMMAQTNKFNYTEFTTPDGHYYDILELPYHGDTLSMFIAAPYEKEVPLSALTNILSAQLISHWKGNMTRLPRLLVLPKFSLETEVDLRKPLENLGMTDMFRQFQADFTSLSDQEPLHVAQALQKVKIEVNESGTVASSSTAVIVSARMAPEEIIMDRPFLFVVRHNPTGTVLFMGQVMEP
Numbers only; they are read as %.

Field: example entries. Status: answers known.
CC(C)(C)c1ccc(CN(C(=O)C(=O)O)c2ccc(N3CCCCC3=O)c(-c3ccc(OC(F)(F)F)cc3)c2)cc1
58
CC(C)(C)c1ccc(COc2ccc(-c3cccc(OC(F)(F)F)c3)cc2CCC(=O)O)cc1
74
CCCCCCN(C(=O)C(=O)O)c1ccc(Oc2ccc(OC(F)(F)F)cc2)cc1
6

Looking up `O=C(O)C(=O)N(CCCCc1ccccc1)c1ccc(N2CCOCC2)c(-c2ccc(OC(F)(F)F)cc2)c1` , I see its Inhibition Rate of PAI-1 Activity (%) listed as 64

Looking up `CC(C)(C)c1ccc(CN(C(=O)C(=O)O)c2ccc(-c3ccc(C(F)(F)F)cc3)cc2)cc1` , I see its Inhibition Rate of PAI-1 Activity (%) listed as 35
